Data provenance is ChEMBL document CHEMBL4346657.

system: K562; assay: Antiproliferative activity against human K562 cells assessed as growth inhibition after 48 hrs by sulforhodamine B assay; type: functional, cell-based; settings: K562, 48 h, read-out: pIC50 (converted)
parameter: IC50 (mM)
State just the number; it will be interpreted in mM.

[
  {
    "structure": "N=C(N)c1ccc(-c2ccc(-c3cncc4ccccc34)s2)s1",
    "parameter": "IC50",
    "assay.result": 38
  },
  {
    "structure": "COc1cccc(-c2ccc(-c3ccc(C(=N)N)s3)s2)c1",
    "parameter": "IC50",
    "assay.result": 19.5
  },
  {
    "structure": "COc1ccc(-c2ccc(-c3ccc(C(=N)N)s3)s2)cc1",
    "parameter": "IC50",
    "assay.result": 19.5
  }
]

Next item in the queue.
IC50 measured on "N=C(N)c1ccc(-c2ccc(-c3ccccc3)s2)s1" = 38
